- Assayed target: HIV-1 Env of pseudovirus SC422661.8 (HIV-1)
- Test: cell-based or functional assay
What neutralization IC50 was measured for each of the following?
Give bare numbers, in µg/mL.

Please review the entries below; each comes with its answer.
Binder	Parameter measured	Value observed
MS-88 (antibody, V domains shown) VH: QVQLVQSGPEVRKPGTSVKVSCKASGYTFKTYDLHWVRSVPGQGLQWMGWISHEGDKKVIVERFKAKVTITRDRSTNTAYLQLSGLTSGDTAVYYCAKGSKHRLRDYALYDDDGALNWAVDVDYLSNLEFWGQGTAVTVSS VL: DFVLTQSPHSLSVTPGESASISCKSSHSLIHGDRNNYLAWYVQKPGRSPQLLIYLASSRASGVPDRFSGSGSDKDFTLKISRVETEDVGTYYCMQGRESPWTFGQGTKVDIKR	neutralization IC50	1.41
MS-92 (antibody, V domains shown) VH: QVQLVQSGPEVRKPGTSVKVSCKAPGNTLKTYDLHWVRSVPGQGLEWMGWISHEGDKKVIVERFKAKVTIDRDRSTNTAYLQLSGLRSGDTAVYYCAKGSKHRLRDYALYDDDGALNWAVDVDYLSNLEFWGQGTAVTVSS VL: DIVLTQSPHSLSVTPGESASISCKSSHSLIHGDRNNYLAWYVQKPGRSPQLLIYLASSRASGVPDRFSGSGSDKDFTLKISRVETEDVGTYYCMQGRESPWTFGQGTKVDIKR	neutralization IC50	1.53

Alright, here's another binder for you.
Reported neutralization IC50 for MS-81 (antibody, V domains shown) VH: QVQLVQSGPEVRKPGTSVKVSCKAPGNTLKTYDLHWVRSVPGQGLQWMGWISHEGDKKVIVERFKAKVTIDWDRSTNTAYLELSGLTSGDTAVYYCAKGSKHRLRDYALYDDDGALNWAVDVDYLSNLEFWGQGTAVTVSS VL: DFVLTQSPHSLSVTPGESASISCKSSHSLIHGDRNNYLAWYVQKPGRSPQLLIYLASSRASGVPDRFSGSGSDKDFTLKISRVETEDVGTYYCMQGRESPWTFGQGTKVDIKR was 0.418

This collection of values is drawn from patent US20220025021A1.
